Measured pKd accompanies every entry in the list below.
Target: T1, CD25 (R&D systems cat. #223-2A/CF) (UniProt P01589 22-213, limits assumed)
T1 construct: Bought soluble protein
T1 sequence (looked up): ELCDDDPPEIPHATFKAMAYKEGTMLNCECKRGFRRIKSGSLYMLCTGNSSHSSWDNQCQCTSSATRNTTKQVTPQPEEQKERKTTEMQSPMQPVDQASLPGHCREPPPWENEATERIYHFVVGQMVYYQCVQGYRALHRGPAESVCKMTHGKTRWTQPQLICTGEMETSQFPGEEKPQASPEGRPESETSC
Test: Biacore (SPR); antibody captured on Protein A, CD25 injected
pKd: −log10 of the molar value.
ENDPOINT_LABEL: pKd

1) anti-CD25 H1.22L1.20 (antibody, V domains shown) VH: QVQLVQSGAEVKKPGASVKVSCKASGYTFTSYRMHWVRQAPGQGLEWMGWINPNSGGTNYAQKFQGRVTITRDTSISTAYMELSRLRSDDTAVYYCARGGGVFDYWGQGTLVTVSS VL: EIVLTQSPATLSLSPGERATLSCRASQSVSYLHWYQQKPGQAPRLLIYTTSNRATGIPARFSGSGSGTDFTLTISSLEPEDFAVYYCHQRSTYPLTFGSGTKLEIK
9.62
2) anti-CD25 H1.22L1.48 (antibody, V domains shown) VH: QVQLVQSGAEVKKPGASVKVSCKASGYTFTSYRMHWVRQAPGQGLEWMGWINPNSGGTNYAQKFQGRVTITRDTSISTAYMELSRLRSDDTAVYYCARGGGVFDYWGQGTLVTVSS VL: EIVLTQSPATLSLSPGERATLSCRASQSVSYMHWYQQKPGQAPRLLIYTTSNRATGIPARFSGSGSGTDFTLTISSLEPEDFAVYYCHQRSTYPLTFGSGTKLEIK
9.77
3) anti-CD25 H1.22L1 (antibody, IgG1, V domains shown, IgG1 format) VH: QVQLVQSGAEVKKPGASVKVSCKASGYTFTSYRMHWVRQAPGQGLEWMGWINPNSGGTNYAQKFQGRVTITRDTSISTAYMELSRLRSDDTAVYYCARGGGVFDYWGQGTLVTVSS VL: QIVLTQSPATLSLSPGERATLSCRASSSISYMHWFQQKPGQSPQLLIYTTSNLASGVPARFSGSGSGTDYTLTISSLQPEDFAVYYCHQRSTYPLTFGSGTKLEIK
9.74
4) anti-CD25 H1L1.56 (antibody, V domains shown, the fourth VL chain; also called VL combination variant L1.56 paired with H1) VH: QVQLVQSGAEVKKPGASVKVSCKASGYTFTSYRMHWVRQAPGQGLEWMGYINPSTGYTEYNQKFQGRVTITADKSISTAYMELSRLRSDDTAVYYCARGGGVFDYWGQGTLVTVSS VL: QIVLTQSPATLSLSPGERATLSCRASQSVSYLHWFQQKPGQSPQLLIYTTSNRATGIPARFSGSGSGTDFTLTISSLEPEDFAVYYCHQRSTYPLTFGSGTKLEIK
8.89
5) anti-CD25 H0L0 (antibody, V domains shown, Chimeric form of the anti-TAC antibody, in IgG1 format; also called chimeric anti-CD25 H0L0; anti-TAC H0L0) VH: QVQLQQSGAELAKPGASVKMSCKASGYTFTSYRMHWVKQRPGQGLEWIGYINPSTGYTEYNQKFKDKATLTADKSSSTAYMQLSSLTFEDSAVYYCARGGGVFDYWGQGTTLTVSS VL: QIVLTQSPAIMSASPGEKVTITCSASSSISYMHWFQQKPGTSPKLWIYTTSNLASGVPARFSGSGSGTSYSLTISRMEAEDAATYYCHQRSTYPLTFGSGTKLELK
9.59
